// data source = paper PMC5540273

tested on: MINK; construct: gene MINK1; settings: concentration: 1 μM, replicates: in singlicate; n = 1;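 note: KINOMEscan kinase panel screen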
For each of the compounds below, state its %Inh.

Cc1ccc(NC(=O)c2ccc(Cl)c(Cl)c2)cc1-c1ccc(C(=O)Nc2ccncc2)cc1; 6%

Give measured %Inh for every item shown.
1. O=C(Nc1c(F)cccc1F)c1cc(C(=O)c2ccccc2F)c[nH]1
2. COc1ccc(C2=C(Nc3cccc(O)c3)C(=O)NC2=O)cc1
3. CC(C)(C)c1ccc(C(=O)Nc2cn3cc(-n4ccnc4)ccc3n2)cc1

A)
["47%", "0%", "18%"]

====

test system: SGK3; conditions: concentration: 1 μM, replicates: in singlicate; n = 1
For each of the compounds below, state its %Inh.
Answers are plain numbers, in %.

Examples with their reported %Inh follow.
CCn1cnc2c(NCc3ccccc3)ncnc21; 3
CN(c1ccc(F)c(NC(=O)c2cccc(OC(C)(C)C#N)c2Cl)c1)c1ccc2nc(NC(=O)C3CC3)sc2n1; 2
COc1ccc(NC(=O)c2ccoc2)cc1-c1ccc(C(=O)NCC2CC2)cc1; 19
Cc1ccc(C)c(NC(=O)Nc2ccc(C)c(-c3ccc(C(=O)Nc4ccncc4)cc3)c2)c1; 8
CCNc1nccc(-c2c(-c3ccc(F)cc3)ncn2C2CCN(C)CC2)n1; 0
Cn1cc(-c2ccc3c(c2)CCN3C(=O)Cc2cc(F)cc(C(F)(F)F)c2)c2c(N)ncnc21; 8
CN(C)c1ncnc2nc[nH]c12; 0
CN(c1ccc2c(c1)nc(NCc1ccccc1)n2C)c1ccnc(Nc2ccc(CS(C)(=O)=O)cc2)n1.Cl; 0
c1ccc(Oc2ccc(Nc3ccnc4cc(-c5ccc(CN6CCCCC6)o5)ccc34)cc2)nc1; 0
O=C(Nc1n[nH]c2nc(-c3ccccc3O)ccc12)C1CC1; 8

Give measured %Inh for every item shown.
1. Cc1cccc(Nc2nc(N[C@H]3CCCC[C@H]3N)ncc2C(N)=O)c1.Cl
2. CN1CCN(Cc2ccc(NC(=O)Nc3ccc(N(C)c4ccnc(Nc5ccc(CS(C)(=O)=O)cc5)n4)cc3)cc2)CC1.Cl

A)
1: 0; 2: 21

Give measured %Inh for every item shown.
1. COc1cccc(C2=C(Nc3cccc(O)c3)C(=O)NC2=O)c1
2. CCn1c(-c2nonc2N)nc2c(-c3ccccc3)ncc(OCCCN)c21.O=C(O)C(F)(F)F.O=C(O)C(F)(F)F
3. Cc1cc(-c2ccnc(Nc3cccc(C#N)c3)n2)cc(C)c1O
4. COc1cc(Nc2nccc(N3CCC(NS(=O)(=O)c4ccc(NC(C)=O)cc4)CC3)n2)cc(OC)c1OC
5. CC(C)c1nc(-c2cccc(NS(=O)(=O)c3c(F)cccc3F)c2)c(-c2ccnc(Nc3ccc(N4CCOCC4)nc3)n2)s1.Cl
6. Cl.O=C(Nc1ccc(Oc2ccc3[nH]c(NC(=O)c4ccco4)nc3c2)cc1)Nc1cc(C(F)(F)F)ccc1F

A)
16
71
6
0
15
0
